// data source = ChEMBL document CHEMBL1138867

experiment: Antiproliferative activity against human D14 cells; format: functional, cell-based
pIC50: −log10 of the molar value.
observation-type: pIC50

CN(C)c1ccc(C(=O)NC(CCCCCC(=O)NO)C(=O)NCc2ccccc2)cc1 (stereo unspecified)    6.59

* * *

test: Antiproliferative activity against human MM229 cells; type: functional, cell-based
observation-type: IC50 (nM)

CN(C)c1ccc(C(=O)NC(CCCCCC(=O)NO)C(=O)NCc2ccccc2)cc1 (stereo unspecified)    600

* * *

test system: NFF; assay: Antiproliferative activity against human NFF cells; type: functional, cell-based
Attribute: IC50
observation-type: IC50 (µM)

O=C(CCCCCC(NC(=O)c1cccnc1)C(=O)NCc1ccccc1)NO (centres undefined)    24
CN(C)c1ccc(C(=O)N[C@@H](CCCCCC(=O)NO)C(=O)NC2(Cc3ccccc3)CCCC2)cc1    3
O=C(CCCCCC(NC(=O)c1ccc([N+](=O)[O-])cc1)C(=O)NCc1ccccc1)NO (centres undefined)    9
O=C(/C=C/c1c[nH]c2ccccc12)N[C@@H](CCCCCC(=O)NO)C(=O)NCc1ccccc1    10.4

* * *

Attribute: IC50
test system: DU-145; assay: Antiproliferative activity against human DU145 cells; format: functional, cell-based
observation-type: IC50

O=C(CCCCC[C@H](NC(=O)OCc1ccccc1)C(=O)Nc1cccc2cccnc12)NO    131 nM
O=C(/C=C/c1ccccc1)N[C@@H](CCCCCC(=O)NO)C(=O)Nc1cccc2cccnc12    30 nM
CN(C)c1ccc(C(=O)N[C@@H](CCCCCC(=O)NO)C(=O)Nc2cccc3cccnc23)cc1    61 nM
CC(C)COC(=O)N[C@@H](CCCCCC(=O)NO)C(=O)Nc1cccc2cccnc12    130 nM
O=C(CCCCC[C@H](NC(=O)c1ccc(Br)cc1)C(=O)Nc1ccc(-c2ccccc2)cc1)NO    149 nM
O=C(CCCCC[C@H](NC(=O)c1cc2ccccc2[nH]1)C(=O)Nc1cccc2cccnc12)NO    22 nM

* * *

experiment: Antiproliferative activity against human D11 cells; format: functional, cell-based
pIC50: −log10 of the molar value.
observation-type: pIC50

CN(C)c1ccc(C(=O)NC(CCCCCC(=O)NO)C(=O)NCc2ccccc2)cc1 (stereo unspecified)    6.52

* * *

assay: Antiproliferative activity against human LSP M2 cells; assay type: functional, cell-based
pIC50: −log10 of the molar value.
observation-type: pIC50

CN(C)c1ccc(C(=O)NC(CCCCCC(=O)NO)C(=O)NCc2ccccc2)cc1 (stereo unspecified)    6.35

* * *

test: Antiproliferative activity against human D17 cells; type: functional, cell-based
observation-type: IC50 (nM)

CN(C)c1ccc(C(=O)NC(CCCCCC(=O)NO)C(=O)NCc2ccccc2)cc1 (stereo unspecified)    60

* * *

system: NFF; assay: Antiproliferative activity against human NFF cells; type: functional, cell-based
pIC50: −log10 of the molar value.
Attribute: pIC50
observation-type: pIC50

O=C(CCCCC[C@H](NC(=O)c1ccc(C(F)(F)F)cc1)C(=O)Nc1cccc2cccnc12)NO    6.16
COc1ccc(CCNC(=O)C(CCCCCC(=O)NO)NC(=O)c2ccco2)cc1 (stereo not drawn)    5.89
O=C(CCCCC[C@H](NC(=O)c1cc2ccccc2[nH]1)C(=O)NCc1ccccc1)NO    5.90
